molecular target: T1, GST (Pierce) (UniProt P08515 1-218 = GST, limits assumed); assay: ELISA, coated GST;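 also: ELISA on plates coated with GST alone at 1-10 µg/ml, antibodies applied at 100-1000x dilution, bound antibody detected by peroxidase substrate colour after acid stop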
T1 construct: control for the GST part of the fusion protein; also called GST protein; Glutathione-S-transferase
Outcome Measure: binding result

anti-TMEM106B antibody TM-13 (antibody, V domains shown) VH: QVQLQQSGAELVKPGASVKMSCKASGYTFTTFPIEWMKQSHGKGLEWIGNFHPYNDDTKYNEKFKGKATLTVDKSSSTVYLDLSRLTSDDSAVYYCARYFYGGMDYWGQGTSVTVSS VL: DIQMTQSPASLSVSVGETVTITCRASENIYSSLGWYQQKQGESPQLLVFAATNLADGVPSRFSGSGSGTQYSLKINSLQSEDFGTYYCQHLWSIPWTFGGGTRLEIK: no binding
anti-TMEM106B antibody TM-25 (antibody, V domains shown) VH: EVQLVESGGDLVKPGGSLRLSCAASGFTFSGYGMSWIRQTPDKRLEWVATISSGGRYTVYPDSVKGRFTMSRDNVKNTLYLQMSSLKSEDTALYYCARDNFYSYAMDYWGLGTSVTVSA VL: DIVMTQAAFSNPVTLGTSASISCRSSKSLLHSNGITYLFWYLQKPGQSPQLLIYQMSNLASGVPDRFSSSGSGTDFTLRISRVEAEDVGVYYCAQNLELWTFGGGTKLEIK: no binding
anti-TMEM106B antibody TM-17 (antibody, V domains shown) VH: QVQLQQSGAELIRPGTSVKVSCKASGYAFTDYLIEWVKQRPGQGLEWIGVINPGSGGTNYNEKFKGKAKLTADKSSSTAYMQLSSLTSEDSAVYFCVRSSYGVYVAYPMDYWGQGTSVTVSS VL: DIQMTQSPSSLSASLGERVSLTCRASQDIGSNLNWLQQEPDGTIKRLIYATSSLDSGVPKRFSGSRSGSDYSLTISSLESEDFVDYYCLQYASSPRTFGGGTKLEIK: no binding

Reference source for all entries: patent US20230303681A1
